Cited source for all entries: patent US20180312587A1

# TEST TARGET: T1, human SIRPα variant 1 (human, UniProt P78324 31-504)
# T1 construct: full length ORF on transfected CHO-K1 or HEK293 cells; entry includes the signal peptide; also called hSIRPαV1; SIRPαV1
# T1 sequence (P78324 31-504 limits assumed, change not shown): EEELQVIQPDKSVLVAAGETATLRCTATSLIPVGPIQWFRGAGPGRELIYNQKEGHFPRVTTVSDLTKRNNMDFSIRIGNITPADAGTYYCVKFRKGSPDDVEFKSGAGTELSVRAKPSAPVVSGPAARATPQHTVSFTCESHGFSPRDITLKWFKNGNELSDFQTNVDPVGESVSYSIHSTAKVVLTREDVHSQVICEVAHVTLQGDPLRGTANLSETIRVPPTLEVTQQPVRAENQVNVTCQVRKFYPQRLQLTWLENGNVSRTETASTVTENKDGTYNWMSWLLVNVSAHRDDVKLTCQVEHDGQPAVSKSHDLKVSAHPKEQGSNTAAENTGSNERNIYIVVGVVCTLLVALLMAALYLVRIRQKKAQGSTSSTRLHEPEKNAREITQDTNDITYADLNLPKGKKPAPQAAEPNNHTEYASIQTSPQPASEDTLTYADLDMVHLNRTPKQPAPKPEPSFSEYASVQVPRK
# ASSAY NOTES: CELISA, CHO-K1 transfectants
RESULT TYPE: pEC50
Scale note: pEC50 = -log10(concentration in M).

Note down pEC50 recorded for 18D5 (antibody, V domains shown, from WO2017/178653; also called clone 18D5) VH: QVQLQQPGAELVRPGSSVKLSCKASGYTFTSYWVHWVKQRPIQGLEWIGNIDPSDSDTHYNQKFKDKASLTVDKSSSTAYMQLSSLTFEDSAVYYCVRGGTGTMAWFAYWGQGTLVTVSA VL: DVVMTQTPLSLPVSLGDQASISCRSSQSLVHSYGNTYLYWYLQKPGQSPKLLIYRVSNRFSGVPDRFSGSGSGTDFTLKISRVEAEDLGVYFCFQGTHVPYTFGSGTKLEIK
9.87

Note down pEC50 recorded for hSIRPα.50A (antibody, V domains shown, light chain constant domain not tied; also called mouse hSIRPα.50A; hSIRPα.50A.mIgG1) VH: QVQLQQSGPELVKPGASVRISCKASGFTFTNYYIHWVKQRPGQGLEWIGWIYPGNVNTKYNEKFKAKATLTADKSSTTAYMQLSSLASEDSAVYFCARPTIIATDFDVWGAGTTVTVSS VL: DIVMTQSHKFMSTSVGDRVNITCKASQGVGTAVGWYQQKPGQSPRLLIYWASTRHTGVPDRFTGSGSGTDFSLAISNVQSEDLADYFCQQYSTYPFTFGGGTNLEIK
9.11

Note down pEC50 recorded for hSIRPα.40A (antibody, mouse IgG1, kappa, V domains shown, mouse antibody, full chains without signal peptide; also called mouse hSIRPα.40A) VH: EVQFQQSGTVLARPGTSVKMSCKASGSTFTSYWMHWVKQGPGQGLQWIGAIYPVNNDTTYNQKFKGKAELTVVTSTSTAYMEVSSLTNEDSAVYYCTRSFYYSLDAAWFVYWGQGTLVTVSA VL: DIQMTQSPSSLSASLGERVSLTCRASQDIGSRLNWLQQEPDGTIKRLIYATSSLDSGVPKRFSGSRSGSDYSLTISGLESEDFVDYYCLQYASSPFTFGGGTKLEINR
9.94

Note down pEC50 recorded for KWAR23 (antibody, V domains shown) VH: EVQLQQSGAELVKPGASVKLSCTASGFNIKDYYIHWVQQRTEQGLEWIGRIDPEDGETKYAPKFQDKATITADTSSNTAYLHLSSLTSEDTAVYYCARWGAYWGQGTLVTVSS VL: QIVLTQSPAIMSASPGEKVTLTCSASSSVSSSYLYWYQQKPGSSPKLWIYSTSNLASGVPARFSGSGSGTSYSLTISSMEAEDAASYFCHQWSSYPRTFGAGTKLELK
10.15
